- System: peptide-specific IgG in sera of cancer patients and healthy donors
- method summary: Measurement of anti-peptide IgG in plasma by LUMINEX multiplexed flow cytometric assay
- Assay type: binding, human
- applied conditions: serum of Uterine cervical Ca. patient #3, 1:100 dilution
Recorded Fluorescence intesity, one value per entry.
Give the figure only, with no unit attached.

A selection of reference data follows.
| biopolymer sequence | Fluorescence intesity |
| --- | --- |
| EFHCNHPFL (SCCA 362-370 peptide) [SCCA-derived peptide, position 362-370] | 0 |
| AYELKIANKL (SCCA 98-107 peptide) [SCCA-derived peptide, position 98-107] | 0 |
| RFKVEESYDL (SCCA 286-295 peptide) [SCCA-derived peptide, position 286-295] | 21 |

Data request, read-out Fluorescence intesity, for LFGEKTYLFL (SCCA 107-116 peptide) [SCCA-derived peptide, position 107-116] 51

Look at this sequence and give its reported Fluorescence intesity. QFQKLLTEF (SCCA 84-92 peptide) [SCCA-derived peptide, position 84-92] 0

The measurements presented in this section are drawn from patent US8030443B2.
